- experimental.system: Vimentin (Homo sapiens, UniProt P08670 2-466)
- Sequence (P08670 2-466): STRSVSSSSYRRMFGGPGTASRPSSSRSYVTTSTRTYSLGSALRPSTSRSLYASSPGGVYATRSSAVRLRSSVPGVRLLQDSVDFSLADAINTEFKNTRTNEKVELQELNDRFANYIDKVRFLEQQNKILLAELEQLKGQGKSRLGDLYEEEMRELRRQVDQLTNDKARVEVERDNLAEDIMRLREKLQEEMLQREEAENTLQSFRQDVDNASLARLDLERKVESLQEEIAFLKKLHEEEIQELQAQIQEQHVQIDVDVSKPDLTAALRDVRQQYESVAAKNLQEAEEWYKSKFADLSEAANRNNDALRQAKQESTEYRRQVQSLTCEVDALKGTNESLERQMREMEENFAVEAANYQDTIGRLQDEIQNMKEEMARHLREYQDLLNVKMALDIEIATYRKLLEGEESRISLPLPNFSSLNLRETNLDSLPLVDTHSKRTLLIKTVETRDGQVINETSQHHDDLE
- measurement.description: fluorescence anisotropy; 150 mM KCl, pH 8.4, 25 C; tetramer concentration, 1:1 fit; 5 mM Tris-HCl pH 8.4, 150 mM KCl; FA 5 nM DNA at 25 C; EMSA 500 nM DNA + 8 uM vimentin, 1 h room temperature, 1.5% agarose 0.5x TBE + 10 mM KCl, run at 4 C
- assay.conditions: protein: commercial; chain copies: 4; label: 5'-6-FAM; two adjacent G4s
measured.endpoint: pKd
Give bare numbers, as −log10 of the molar value.

[ask] Given the entry TTAGGGTTAGGGTTAGGGTTAGGGTTAGGGTTAGGGTTAGGGTTAGGG (structured_DNA) [FAM-2TEL] , report its measured pKd.
[reply] 7.59
